- TARGET_UNDER_TEST: Human Factor D (Homo sapiens (Human))
- Sequence (P00746 26-253): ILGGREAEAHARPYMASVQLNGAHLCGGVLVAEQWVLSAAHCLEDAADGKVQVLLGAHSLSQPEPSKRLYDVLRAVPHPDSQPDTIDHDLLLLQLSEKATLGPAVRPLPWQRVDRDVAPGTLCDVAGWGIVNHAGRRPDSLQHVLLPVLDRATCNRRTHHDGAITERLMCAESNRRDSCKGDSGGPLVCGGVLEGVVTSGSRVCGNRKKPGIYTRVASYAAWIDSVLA
- TEST: Human Factor D Assay
- Type: biochemical
- CONDITIONS: Table 7; read-out: IC5 (Stars)
pIC50: −log10 of the molar value.
What pIC50 was measured for each of the following?

[Q] Looking for the measured pIC50 of Cc1ncc(-c2cc(CC(=O)N3C[C@H](F)C[C@H]3C(=O)Nc3cccc(-c4ccccc4Cl)c3F)cc(OCC(=O)O)c2)cn1 [Compound T-120] , can you help?
[A] 5.00 to 6.00

[Q] What value of pIC50 has been recorded for this entry: Cc1ccc(Br)nc1NC(=O)[C@@H]1C[C@@]2(C)C[C@H]2N1C(=O)Cc1ccc2[nH]nc(C(=O)O)c2c1 [Compound T-102]
[A] 5.00 to 6.00

[Q] Which pIC50 reading was recorded for the molecule CC(=O)c1nn(CC(=O)N2[C@H](C(=O)Nc3nc(Br)ccc3C)C[C@@]3(Cn4cc(C5CC5)nn4)C[C@@H]23)c2cnccc12 ?
[A] > 6.00

[Q] Bench note: what pIC50 did CC(=O)c1nn(CC(=O)N2[C@H](C(=O)NCc3cccc(Cl)c3F)C[C@@]3(CNC(=O)COCCOCCNC(=O)COCCOCCNC(=O)CC[C@H](NC(=O)CCCCCCCCCCCCCCCCC(=O)O)C(=O)O)C[C@@H]23)c2c(C)cc(NC(=O)N3CCCC(F)(F)C3)cc12 show?
[A] > 6.00

[Q] Record request: pIC50 value, item Cc1ncc(-c2cc(C#N)cc(CC(=O)N3C[C@H](F)C[C@H]3C(=O)Nc3cccc(-c4ccccc4Cl)c3F)c2)cn1
[A] > 6.00
